Assay: CCTE_Shafer_MEA_acute_firing_rate_mean: CCTE's Neural Acute Assay for Mean Firing Rate, Shafer Lab (AID 2284009);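 further: analyzed for loss of signal so actives lower firing rate relative to DMSO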
Calls of active or inactive are those of the source. How the source made its calls: active means hit-call score of the fitted dose curve at least 0.9, where 1 is the maximum; inactive means score below 0.9.
Answer with one of the outcomes given here: active, inactive

Enquiry: How was `Cc1ccc(N)cc1N` classified in this test?
Return: inactive

Enquiry: How was O=C(O)C1C(C(=O)O)C2(Cl)C(Cl)=C(Cl)C1(Cl)C2(Cl)Cl (stereo unspecified) classified in this test?
Return: inactive

Enquiry: How was `CCOc1ccc(C(C)(C)COCc2cccc(Oc3ccccc3)c2)cc1` classified in this test?
Return: inactive

Enquiry: How was CCCCC(CC)COP(=O)(Oc1ccccc1)Oc1ccccc1 (stereo unspecified) classified in this test?
Return: active

Enquiry: How was `CCC(C)(C)c1ccc(O)cc1` classified in this test?
Return: active

Enquiry: How was `c1ccc2c(c1)Nc1ccccc1S2` classified in this test?
Return: active

Enquiry: How was `COCCOCCO` classified in this test?
Return: inactive

Enquiry: How was `CC(C)(C)c1ccccc1OP(=O)(Oc1ccccc1)Oc1ccccc1` classified in this test?
Return: active

Enquiry: How was CCC1(c2ccccc2)C(=O)N=C(O)NC1=O (stereo unspecified) classified in this test?
Return: inactive

Enquiry: How was `ClC(Cl)(Cl)c1ccccc1` classified in this test?
Return: inactive

Enquiry: How was ClC1=C(Cl)C2(Cl)C3C(Cl)C(Cl)CC3C1(Cl)C2(Cl)Cl (stereo unspecified) classified in this test?
Return: inactive

###

Experiment: ATG_CMV_CIS: Attagene CIS-FACTORIAL HepG2 Assay for human CMV (Internal Marker) (AID 2282928);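 further: endpoint acts as a background internal control marker rather than a target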
Conditions: HepG2 CMV promoter reporter, transcription factor profiling; actives raise or lower the signal
Active and inactive are the calls of the source. Rule for the calls: active = hit-call score of the fitted dose curve at least 0.9, where 1 is the maximum; inactive = score below 0.9.
Quantity name: AC50

Molecule | Result
CCOP(=O)(O)C(N)=O | inactive
CO/N=C(/C(=O)OC)c1ccccc1COc1ccccc1C | 23.2 µM (active)
CCCCOCC1CO1 (stereo not drawn) | inactive

###

Assay: CCTE_Shafer_MEA_acute_synchrony_index: CCTE's Neural Acute Assay for Synchrony, Shafer Lab (AID 2284027);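 further: network synchrony index of spontaneous spiking in primary rat cortical neurons on MEAs; fitted for loss of signal so actives lower synchrony relative to DMSO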
The source made the active and inactive calls. Rule for the calls: active = hit-call score of the fitted dose curve at least 0.9, where 1 is the maximum; inactive = score below 0.9.
Quantity name: AC50

Compound | Result
COCCOCCO | inactive
COP(=O)(CCC(=O)NCO)OC | inactive
[N-]=[N+]=[N-] | inactive
CCOP(=S)(Oc1ccc([N+](=O)[O-])cc1)c1ccccc1 (stereo not drawn) | inactive
CCC1(c2ccccc2)C(=O)N=C(O)NC1=O (stereo not drawn) | inactive

Enquiry: Entry `CC(C)(C)c1ccccc1OP(=O)(Oc1ccccc1)Oc1ccccc1` has what AC50?
Return: 6.97 µM (active)

Enquiry: Entry `c1ccc2c(c1)Nc1ccccc1S2` has what AC50?
Return: 20 µM (active)

Enquiry: Entry `Cc1ccc(N)cc1N` has what AC50?
Return: inactive

###

Read-out: Cyclin D1 (CCND1), CCND1 (gene 595)
Test: LTEA_HepaRG_CCND1: Life Technologies and Expression Analysis (LTEA) Assay for Cyclin D1 (CCND1) using HepaRG (AID 2283451)
Conditions: mRNA level, 48 h; actives raise or lower the signal
Calls of active or inactive are those of the source. The calls were made as follows: active = hit-call score of the fitted dose curve at least 0.9, where 1 is the maximum; inactive = score below 0.9.
Quantity name: outcome

Example entries and their recorded answers appear below.
Compound | Quantity name | Result
CCCCN(CCCC)SN(C)C(=O)Oc1cccc2c1OC(C)(C)C2 | outcome | inactive
CCOP(=S)(OCC)SCSCC | outcome | inactive
O=[N+]([O-])c1ccccc1 | outcome | inactive
CCOP(=S)(Oc1ccc([N+](=O)[O-])cc1)c1ccccc1 (stereo unspecified) | outcome | inactive
CCC1(c2ccccc2)C(=O)N=C(O)NC1=O (stereo unspecified) | outcome | inactive
CCC(C)(C)c1ccc(O)cc1 | outcome | inactive
COCCOCCO | outcome | inactive
CCN(CC)c1ccccc1 | outcome | inactive
CC(Cc1ccc(OCC(=O)O)cc1)NCC(O)c1csc(C(F)(F)F)n1 (stereo unspecified) | outcome | inactive
c1cc2c3c(cccc3c1)CC2 | outcome | inactive

Now look at this one.
Enquiry: Entry `Nc1ccc2ccccc2c1` has what outcome?
Return: inactive
